Reference for the values: patent US20150239831A1

# STUDY_TARGET: VIPR2 (Homo sapiens)
# Sequence (P41587 24-438): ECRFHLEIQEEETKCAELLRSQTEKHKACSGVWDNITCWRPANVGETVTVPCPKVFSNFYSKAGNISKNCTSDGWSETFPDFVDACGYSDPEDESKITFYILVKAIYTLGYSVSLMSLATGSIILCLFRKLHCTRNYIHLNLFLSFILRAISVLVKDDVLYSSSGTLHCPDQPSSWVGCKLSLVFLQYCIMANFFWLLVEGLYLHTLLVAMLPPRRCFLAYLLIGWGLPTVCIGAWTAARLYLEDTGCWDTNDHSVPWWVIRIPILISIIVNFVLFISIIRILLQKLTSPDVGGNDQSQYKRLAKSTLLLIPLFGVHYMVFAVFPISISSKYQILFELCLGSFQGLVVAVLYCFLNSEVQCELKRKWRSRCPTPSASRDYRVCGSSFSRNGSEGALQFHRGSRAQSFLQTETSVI
# ASSAY_PROTOCOL: Inhibition of VIP-induced β-arrestin recruitment (% Activity Arrestin)
# Type: cell-based
# Set-up: expressed in transfected cells; host or cells: HEK293 cells transfected with VIPR2 in pCDNA3.1 (as described)
# TEST_PARAMETERS: 1 μM, Batch 1
The label depends only on inhibition at 1 µM: t if it is at least 30%, f if it is smaller.

Challenge: I'd appreciate it if you could say whether O=C(NC[C@@H](O)C[C@@H](Cc1ccccc1)C(=O)N[C@H]1c2ccccc2C[C@H]1O)c1cccc(Br)c1 [Q] has inhibition at 1 µM at least equal to 30%.
Response given: f

Challenge: I'd appreciate it if you could say whether CS(=O)(=O)NC[C@@H](O)C[C@@H](Cc1ccccc1)C(=O)N[C@H]1c2ccccc2C[C@H]1O [Compound A5] has inhibition at 1 µM at least equal to 30%.
Response given: t

Challenge: I'd appreciate it if you could say whether O=C(Cc1cccc(Cl)c1)NC[C@@H](O)C[C@@H](Cc1ccccc1)C(=O)N[C@H]1c2ccccc2C[C@H]1O [Compound A19] has inhibition at 1 µM at least equal to 30%.
Response given: f

Challenge: I'd appreciate it if you could say whether O=C(CCCCl)NC[C@@H](O)C[C@@H](Cc1ccccc1)C(=O)N[C@H]1c2ccccc2C[C@H]1O [Compound A22] has inhibition at 1 µM at least equal to 30%.
Response given: f

Challenge: I'd appreciate it if you could say whether O=C(N[C@H]1c2ccccc2C[C@H]1O)[C@H](Cc1ccccc1)C[C@H](O)CNS(=O)(=O)c1ccc(C(F)(F)F)cc1 [F] has inhibition at 1 µM at least equal to 30%.
Response given: t

Challenge: I'd appreciate it if you could say whether O=C(N[C@H]1c2ccccc2C[C@H]1O)[C@H](Cc1ccccc1)C[C@H](O)CNS(=O)(=O)c1ccccc1C(F)(F)F [R] has inhibition at 1 µM at least equal to 30%.
Response given: f

Challenge: I'd appreciate it if you could say whether O=C(NC[C@@H](O)C[C@@H](Cc1ccccc1)C(=O)N[C@H]1c2ccccc2C[C@H]1O)c1ccc([N+](=O)[O-])cc1 [Compound A25] has inhibition at 1 µM at least equal to 30%.
Response given: f

Challenge: I'd appreciate it if you could say whether O=C(NC[C@@H](O)C[C@@H](Cc1ccccc1)C(=O)N[C@H]1c2ccccc2C[C@H]1O)c1cccnc1 [Compound A16] has inhibition at 1 µM at least equal to 30%.
Response given: f

Challenge: I'd appreciate it if you could say whether CC(=O)c1ccc(S(=O)(=O)NC[C@@H](O)C[C@@H](Cc2ccccc2)C(=O)N[C@H]2c3ccccc3C[C@H]2O)cc1 [K] has inhibition at 1 µM at least equal to 30%.
Response given: t

Challenge: I'd appreciate it if you could say whether O=C(NC[C@@H](O)C[C@@H](Cc1ccccc1)C(=O)N[C@H]1c2ccccc2C[C@H]1O)C1CC1 [Compound A1] has inhibition at 1 µM at least equal to 30%.
Response given: t

Challenge: I'd appreciate it if you could say whether O=C(NC[C@@H](O)C[C@@H](Cc1ccccc1)C(=O)N[C@H]1c2ccccc2C[C@H]1O)c1cccc([N+](=O)[O-])c1 [M] has inhibition at 1 µM at least equal to 30%.
Response given: f

Challenge: I'd appreciate it if you could say whether N#Cc1ccc(S(=O)(=O)NC[C@@H](O)C[C@@H](Cc2ccccc2)C(=O)N[C@H]2c3ccccc3C[C@H]2O)cc1 [C] has inhibition at 1 µM at least equal to 30%.
Response given: t

Challenge: I'd appreciate it if you could say whether O=C(N[C@H]1c2ccccc2C[C@H]1O)[C@H](Cc1ccccc1)C[C@H](O)CNS(=O)(=O)c1cccc([N+](=O)[O-])c1 [L] has inhibition at 1 µM at least equal to 30%.
Response given: t

Challenge: I'd appreciate it if you could say whether O=C(CCCCBr)NC[C@@H](O)C[C@@H](Cc1ccccc1)C(=O)N[C@H]1c2ccccc2C[C@H]1O [Compound A15] has inhibition at 1 µM at least equal to 30%.
Response given: f

Challenge: I'd appreciate it if you could say whether O=C(CCN1C(=O)C=CC1=O)NC[C@@H](O)C[C@@H](Cc1ccccc1)C(=O)N[C@H]1c2ccccc2C[C@H]1O [Compound A21] has inhibition at 1 µM at least equal to 30%.
Response given: f

Challenge: I'd appreciate it if you could say whether COc1cc(C(=O)NC[C@@H](O)C[C@@H](Cc2ccccc2)C(=O)N[C@H]2c3ccccc3C[C@H]2O)cc(OC)c1OC [H] has inhibition at 1 µM at least equal to 30%.
Response given: t

Challenge: I'd appreciate it if you could say whether O=C(NC[C@@H](O)C[C@@H](Cc1ccccc1)C(=O)N[C@H]1c2ccccc2C[C@H]1O)C(Cl)Cl [Compound A6] has inhibition at 1 µM at least equal to 30%.
Response given: f

Challenge: I'd appreciate it if you could say whether O=C(NC[C@@H](O)C[C@@H](Cc1ccccc1)C(=O)N[C@H]1c2ccccc2C[C@H]1O)c1ccncc1 [Compound A18] has inhibition at 1 µM at least equal to 30%.
Response given: f

Challenge: I'd appreciate it if you could say whether Cc1ccc(S(=O)(=O)NC[C@@H](O)C[C@@H](Cc2ccccc2)C(=O)N[C@H]2c3ccccc3C[C@H]2O)c(C)c1 [N] has inhibition at 1 µM at least equal to 30%.
Response given: f

Challenge: I'd appreciate it if you could say whether O=C(NC[C@@H](O)C[C@@H](Cc1ccccc1)C(=O)N[C@H]1c2ccccc2C[C@H]1O)c1ccco1 [Compound A2] has inhibition at 1 µM at least equal to 30%.
Response given: f

Challenge: I'd appreciate it if you could say whether O=C(NC[C@@H](O)C[C@@H](Cc1ccccc1)C(=O)N[C@H]1c2ccccc2C[C@H]1O)c1ccccn1 [Compound A17] has inhibition at 1 µM at least equal to 30%.
Response given: t

Challenge: I'd appreciate it if you could say whether Cc1ccc([N+](=O)[O-])cc1S(=O)(=O)NC[C@@H](O)C[C@@H](Cc1ccccc1)C(=O)N[C@H]1c2ccccc2C[C@H]1O [P] has inhibition at 1 µM at least equal to 30%.
Response given: f

Challenge: I'd appreciate it if you could say whether O=C(CCl)NC[C@@H](O)C[C@@H](Cc1ccccc1)C(=O)N[C@H]1c2ccccc2C[C@H]1O [Compound A7] has inhibition at 1 µM at least equal to 30%.
Response given: f

Challenge: I'd appreciate it if you could say whether O=C(N[C@H]1c2ccccc2C[C@H]1O)[C@H](Cc1ccccc1)C[C@H](O)CNS(=O)(=O)c1ccc([N+](=O)[O-])cc1 [Compound A27, reference compound] has inhibition at 1 µM at least equal to 30%.
Response given: t
